Ref: patent US20240270821A1

- assayed_system: hGLP-1R (Homo sapiens, UniProt P43220)
- Sequence (P43220 24-463): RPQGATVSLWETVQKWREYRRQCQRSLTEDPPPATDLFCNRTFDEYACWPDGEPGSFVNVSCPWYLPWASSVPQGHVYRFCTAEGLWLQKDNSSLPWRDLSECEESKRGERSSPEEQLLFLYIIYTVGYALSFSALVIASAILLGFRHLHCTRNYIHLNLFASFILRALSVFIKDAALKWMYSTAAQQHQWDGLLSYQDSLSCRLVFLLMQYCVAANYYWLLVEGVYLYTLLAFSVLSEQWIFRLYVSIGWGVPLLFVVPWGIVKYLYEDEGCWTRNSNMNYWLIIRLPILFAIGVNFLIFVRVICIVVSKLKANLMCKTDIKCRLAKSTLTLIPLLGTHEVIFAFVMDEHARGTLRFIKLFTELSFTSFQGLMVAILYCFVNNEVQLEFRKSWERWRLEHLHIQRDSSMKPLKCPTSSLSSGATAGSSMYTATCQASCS
- method: Functional cAMP activity in the presence of 1% HSA
- Assay type: cell-based
- cond: read-out: cAMP Rel EC50, hGLP-1R
Starred links: 1 amine or outer side, 2 acyl side, 3 side chain; linkers in the order of their positions; H or OH if unused. Non-standard residues stand in square brackets, D forms with d. Groups on a side chain read outwards from the residue. No end group written: not given here. *: point of attachment. C20 diacid = O=C(O)CCCCCCCCCCCCCCCCCCC(=O)*; C18 diacid = O=C(O)CCCCCCCCCCCCCCCCC(=O)*; αMePhe(2-F) = C[C@](N)(Cc1ccccc1F)C(=O)O; γGlu = O=C(O)[C@H](CCC(=O)[*:2])N[*:1]; αMe4Pal = C[C@](N)(Cc1ccncc1)C(=O)O; αMeY = C[C@](N)(Cc1ccc(O)cc1)C(=O)O; 4Pal = N[C@@H](Cc1ccncc1)C(=O)O; αMeL = CC(C)C[C@](C)(N)C(=O)O; αMeS = C[C@](N)(CO)C(=O)O; Orn = NCCC[C@H](N)C(=O)O; Dab = NCC[C@H](N)C(=O)O; AEEA = NCCOCCOCC(=O)O; Aib = CC(C)(N)C(=O)O
Listing of recorded EC50 by entry.
Field format: number, assumed nM, no unit text.

Y[Aib]QGT[αMePhe(2-F)]TSD[4Pal][αMeS]I[αMeL]LD[Orn]K([γGlu-γGlu-C18 diacid])AQ[αMe4Pal]EFI[dE][αMeY]LIEGGPSSGEPPPEGGGE-NH2 [Example 762]; 27.6
H-Y[Aib]QGT[αMePhe(2-F)]TSD[4Pal][αMeS]ILLD[Orn]K([γGlu-γGlu-C18 diacid])AQ[Aib][Orn]FI[dE]YLIEGGPSSGEPPPSGTGE-NH2 [Example 548]; 38
H-Y[Aib]QGTFTSDFSK[αMeL]LDKK([AEEA-γGlu-C18 diacid])AQ[Aib]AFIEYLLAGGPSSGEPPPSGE-NH2 [Example 23]; 308
H-Y[Aib]QGTFTSDFS[Orn][αMeL]LDKK([AEEA-γGlu-C20 diacid])AQ[Aib]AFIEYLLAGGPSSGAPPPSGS[AEEA]-NH2 [Example 83]; 653
H-Y[Aib]QGTFTSD[4Pal]SR[αMeL]LDKK([γGlu-γGlu-C18 diacid])AQ[αMe4Pal]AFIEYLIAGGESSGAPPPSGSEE-NH2 [Example 965]; 194

Qu. Fill in: EC50 of H-Y[Aib]QGTFTSDFS[Dab][αMeL]LDKK([AEEA-γGlu-C18 diacid])AQ[Aib]AFIEYLIE[Aib]GPSSGAPPPSGS-NH2 [Example 799] is ___
Ans. 179

Qu. Entry to check: H-Y[Aib]QGT[αMePhe(2-F)]TSD[4Pal]SILLD[Orn]K([γGlu-γGlu-C18 diacid])AQ[Aib]AFIE[αMeY]LEEGGPSSGAPPPSGTGE-NH2 [Example 665]
Ans. 32.8

Qu. Entry to check: H-Y[Aib]QGT[αMePhe(2-F)]TSD[4Pal]SILLDKK([γGlu-γGlu-C18 diacid])AQ[Aib]AFIEYLEEGGPSSGAPPPSGTEE-NH2 [Example 609]
Ans. 121
